# Lookup of reported GI50 keyed by entry
Tested on: RPMI-8226 leukemia
Assay: NCI tumour cell line growth inhibition, 48 h

In: Return reported GI50. Input compound: O=C1NC(=O)C(c2cccc([N+](=O)[O-])c2)=C1Nc1cc(Cl)c(O)c(Cl)c1
Out: > 25000 nM

In: Return reported GI50. Input compound: CCOC(=O)/C=C(/C)Sc1cc(O)c2ccccc2c1O
Out: 2290 nM

In: Return reported GI50. Input compound: O=C1NC(=O)/C(=C\c2ccccc2)C2=C1CCCC2
Out: 1910 nM

In: Return reported GI50. Input compound: Cc1cc(C)c(NC(=O)c2sc3nc4c(cc3c2N)CN(Cc2ccccc2)CC4)c(C)c1
Out: 3180 nM

New cases:
In: Return reported GI50. Input compound: CCCCCOc1ccc(/C=N/Nc2cc(C)nc3ccc(Br)cc23)cc1
Out: 1910 nM
